Measured values drawn from PubChem BioAssay (NCI) for this set.

Each entry below carries its reported TGI.
Test system: SF-268 CNS
method_summary: NCI tumour cell line growth inhibition, 48 h

The cases that follow already have their TGI on record.
Request: Write down measured TGI (SF-268 CNS) for this molecule. COc1ccccc1NC(=O)C1=C(C)NC(C)=C(C(=O)Nc2ccccc2OC)C1c1ccc(C(C)C)cc1
Result: > 100 µM

Request: Write down measured TGI (SF-268 CNS) for this molecule. CC(=O)Nc1ccc(C(=O)N[C@@H]2C(=O)N3[C@@H]2SC(C)(C)[C@@H]3C(=O)O)cn1
Result: > 100 µM

Request: Write down measured TGI (SF-268 CNS) for this molecule. CC(=O)c1nc2ccccc2n1CC(=O)c1ccc([N+](=O)[O-])cc1
Result: > 100 µM

Request: Write down measured TGI (SF-268 CNS) for this molecule. Cc1ccccc1NC(=O)c1[nH]c(=S)nc(N)c1-c1ccccc1C
Result: > 100 µM

Please find the next molecule below.
Request: Write down measured TGI (SF-268 CNS) for this molecule. Cc1c2c(nn1-c1ccc(S/N=C3\SCC(=O)CN3c3ccccc3)cc1)-c1ccccc1CC2
Result: > 50 µM

---

Test system: U251 CNS
method_summary: NCI tumour cell line growth inhibition, 48 h
Each entry below carries its reported TGI.

The cases that follow already have their TGI on record.
Request: Name the recorded TGI of the item N#Cc1ccc(Nc2nc3nc[nH]c3c(=O)[nH]2)cc1 in your answer.
Result: > 100 µM

Request: Name the recorded TGI of the item CCP(=O)(CC)C(Cl)(Cl)C(=O)NC in your answer.
Result: > 100 µM

Request: Name the recorded TGI of the item COc1cc(/C=C/C(=O)c2ccc(Nc3nc(Nc4ccc(F)cc4)nc(Nc4ccc(F)cc4)n3)cc2)cc(OC)c1OC in your answer.
Result: > 100 µM

New cases:
Request: Name the recorded TGI of the item Cc1cc(S(N)(=O)=O)c(S/C(=N\NS(=O)(=O)c2ccc(Cl)cc2)c2ccc(Cl)cc2)cc1Cl in your answer.
Result: > 100 µM

Request: Name the recorded TGI of the item Cc1nc2c(=O)[nH]c(=O)nc-2n(CCO)c1C in your answer.
Result: > 100 µM

Request: Name the recorded TGI of the item CC(C)(C)c1cc(C2COC(=O)COCCOCC(=O)OCCOCCO2)cc(C(C)(C)C)c1O (configuration not stated) in your answer.
Result: > 100 µM

Request: Name the recorded TGI of the item N#CC(C#N)=C1NC(=O)C(c2ccccc2)C(=O)N1 (configuration not stated) in your answer.
Result: > 100 µM

---

System: K-562 leukemia
method_summary: NCI tumour cell line growth inhibition, 48 h
Each entry below carries its reported TGI.

The cases that follow already have their TGI on record.
Request: Write down measured TGI (K-562 leukemia) for this molecule. NS(=O)(=O)c1ccc(-n2nc(-c3ccc(Cl)cc3)cc2C2=CC(=O)C=CC2=O)cc1
Result: 74.1 µM

Request: Write down measured TGI (K-562 leukemia) for this molecule. O=C(/C=C1\N=C(c2ccccc2)N(c2ccc3c(c2)Sc2cc(N4C(=O)/C(=C/C(=O)/C=C/c5ccccc5)N=C4c4ccccc4)ccc2N3)C1=O)/C=C/c1ccccc1
Result: > 100 µM

Request: Write down measured TGI (K-562 leukemia) for this molecule. O=[N+]([O-])c1ccc2[nH]cc(-c3c4ccccc4cc4[nH]c5ccc([N+](=O)[O-])cc5c34)c2c1
Result: > 100 µM

Request: Write down measured TGI (K-562 leukemia) for this molecule. O=c1c(-c2ccccc2)c[nH]c2cc([N+](=O)[O-])c(/C(Cl)=C/c3ccccc3)cc12
Result: 20.7 µM

New cases:
Request: Write down measured TGI (K-562 leukemia) for this molecule. Cc1cc(S(N)(=O)=O)c(S/C(=N\NS(=O)(=O)c2ccc(Cl)cc2)c2ccc(Cl)cc2)cc1Cl
Result: > 100 µM

Request: Write down measured TGI (K-562 leukemia) for this molecule. Cc1cc2c(=O)cc(-c3ccc(Cl)cc3)oc2c(C(=O)O)c1C
Result: > 100 µM

Request: Write down measured TGI (K-562 leukemia) for this molecule. Brc1ccc(-c2ccc(-c3ccc(Br)s3)s2)s1
Result: > 100 µM

Request: Write down measured TGI (K-562 leukemia) for this molecule. O=C(/C=C/c1ccccc1F)C(c1ccccc1)c1ccccc1
Result: 9.74 µM

Request: Write down measured TGI (K-562 leukemia) for this molecule. NC(=O)c1cc2ccccc2c(N=Nc2ccccc2)c1O
Result: > 100 µM
